All figures here come from ChEMBL document CHEMBL1201862.

# GI50 listing for each entry below
# System: SNB-19
# Assay Name: NCI tumour cell line growth inhibition, 48 h
Active and inactive are the calls of the source. Rule as the data show it: active = GI50 up to about 1.1 µM and inactive = higher.

Answered examples (3):
C/C=C/C(=O)N1C(=O)OC[C@@H]1c1ccccc1 ... 20.4 µM (inactive)
O=C(/C=C/c1ccc(OCc2ccccc2)cc1)NCc1ccc(C(=O)NCCc2ccccc2)cc1 ... > 100 µM (inactive)
Cc1nc(-n2[nH]c(C)c(CCO)c2=O)[nH]c(=O)c1CCO ... > 100 µM (inactive)

Recorded result, O=C(CC(C(=O)c1ccsc1)c1cccs1)c1ccsc1 (stereo unspecified) , GI50: > 100 µM (inactive)

So, Cc1nc(C)c(C(=O)Nc2cccc3c2C(=O)NC3=O)cc1C(=O)Nc1cccc2c1C(=O)NC2=O ? Its GI50 was > 100 µM (inactive)

Short answer for O=C(O)\C=C/C=C/C=C/C=C/C(=O)O : GI50 was > 100 µM (inactive)

* * *

Recorded measurements of GI50, one per entry
# System: XF498
# Assay Name: NCI tumour cell line growth inhibition, 48 h
Activity calls are given as the source filed them. Rule as the data show it: active = GI50 up to about 1.1 µM and inactive = higher.

The reported GI50 of the molecule CN(C)CCSc1nccc(-c2ccc(-c3ccnc(SCCN(C)C)n3)s2)n1 was 15.6 µM (inactive)

response.value for CCCCOC(=O)NC(=O)c1cn(CCCOC(=O)NCCCCCCNC(=O)OCCCn2cc(C(=O)NC(=O)OCCCC)c(=O)[nH]c2=O)c(=O)[nH]c1=O (field: GI50) = 18.7 µM (inactive)

The reported value for COC(=O)[C@@]12OC[C@]34C([C@@H](O)C1O)[C@@]1(C)CC(=O)C(OC(=O)/C=C(/c5ccccc5)C(F)(F)F)=C(C)C1C[C@H]3OC(=O)[C@H](O)[C@H]42 (stereo partly drawn) in terms of GI50 is 9.82 µM (inactive)

// GI50 value for CC(C)(CN1CCCCC1)C(=O)/C=C/c1ccc(Br)cc1 : 2.05 µM (inactive)

Short answer for CCCCCCCSCC1C(=O)C23C(O)C1CCC2C12COC3(O)C(O)C1C(C)(C)CCC2O (stereo not drawn) : GI50 was 18.5 µM (inactive)

Consider C[C@]12CC[C@H](OC(=O)Cc3ccc(N(CCCl)CCCl)cc3)CC1CC[C@@H]1C2CC[C@]2(C)NC(=O)CCC12 (stereo partly drawn) . Its measured GI50 is 13.6 µM (inactive)

Reported GI50 of COc1ccc(NC(=O)/C(Cc2nc3ccccc3nc2O)=N\O)c(OC)c1 : > 100 µM (inactive)

In plain terms, CCCCCN(CCCCC)C(=O)[C@H](CCC(=O)O)NC(=O)c1cc2ccccc2[nH]1 has a documented GI50 of 44.9 µM (inactive)

* * *

# System: IGROV-1
# Assay Name: NCI tumour cell line growth inhibition, 48 h
Active and inactive are the calls of the source. No stated cut-off is given here; in the data, active = GI50 up to about 1.1 µM and inactive = higher.
Measured Attribute: GI50

The compound listed as Cc1ccc(NC(S)=Nc2c(C)n(C)n(-c3ccccc3)c2=O)cc1 has a reported GI50 of > 100 µM (inactive)

The reported GI50 of the compound CCOC(=O)CNC(=O)C(CCC(=O)N(C)O)NC(=O)CCC(N)C(=O)O (centres undefined) was > 100 µM (inactive)

Please fill in: GI50 reported for CC(=O)O[C@H]1C(=O)[C@@]2(C)C(C(OC(=O)c3ccccc3)C3[C@@H](O)C(OC(=O)[C@@H](O)[C@H](NC(=O)c4ccccc4)c4ccc(C(F)(F)F)cc4)C(C)=C1C3(C)C)[C@]1(OC(C)=O)CO[C@@H]1C[C@@H]2O (some centres undefined) = > 25 µM (inactive)

Notebook: Cc1c(Cl)cccc1NC(=O)/C=C/c1ccccc1 , GI50 read as > 100 µM (inactive)

* * *

# Test system: HCT-15
Measured Attribute: GI50

Below, each entry is followed by its recorded GI50 result.
CCOC(=O)NC(Nc1ccc(S(=O)(=O)Nc2ncccn2)cc1)(C(=O)OCC)C(F)(F)F (stereo not drawn) ... > 100 µM
COc1ccc(-n2c(C)nc3ccc(NC4OC(CO)C(O)C(O)C4O)cc3c2=O)cc1 (stereo not drawn) ... > 100 µM
O=C(/C=C/c1ccc(O)cc1)c1ccc2c(c1)OCO2 ... 26.1 µM
COc1ccc(N2C(=O)C3C=CC(n4[nH]c(=O)n(Cc5ccccc5)c4=O)CC3C2=O)cc1 (stereo not drawn) ... > 100 µM
Cc1c(C)c2cc3c(=O)ccoc3c(C)c2oc1=O ... > 100 µM

Observed GI50, HCT-15, CN1C(NCCO)=NS(=O)(=O)c2ccccc21 : > 100 µM

Field GI50 (system: HCT-15) for entry Nc1ccc(-c2ccc(Nc3cc(S(=O)(=O)O)c(N)c4c3C(=O)c3ccccc3C4=O)cc2)c(S(=O)(=O)O)c1 = > 100 µM

The molecule CC[C@H](C)[C@H]1NC(=O)[C@@H](NC(=O)[C@@H](CC(C)C)N(C)CC2CCCN2C(=O)C(C)=O)[C@@H](C)OC(=O)[C@H](Cc2ccc(OC)cc2)N(C)C(=O)C2CCCN2C(=O)[C@H](CC(C)C)NC(=O)[C@@H](C)C(=O)[C@H](C(C)C)OC(=O)C[C@@H]1O (stereo partly drawn) , when measured on HCT-15, yielded GI50 of 0.0769 µM

* * *

# Test system: DU-145
# Assay Name: NCI tumour cell line growth inhibition, 48 h
Calls of active or inactive are those of the source. No stated cut-off is given here; in the data, active = GI50 up to about 1.1 µM and inactive = higher.
Measured Attribute: GI50

COc1ccccc1C(O)[C@@H]1C[C@@H]2[C@H]3CC[C@@](C)([C@@H]2O1)C3(C)C (stereo partly specified) ... 22.1 µM (inactive)

What the record says about CC1=CC(C)(C)Nc2ccc(CSc3ccccc3)cc21 : GI50 is 22.8 µM (inactive)

Lookup result for CO/C=C/C=C(\C#N)C(=O)OC ; measured GI50: > 100 µM (inactive)

Record CN(C)CCNC1=CC(=O)c2c(O)ccc(O)c2C1=O . Reported GI50: 13.8 µM (inactive)

* * *

Measured GI50, listed per entry.
# System: K562
# Assay Name: NCI tumour cell line growth inhibition, 48 h
The source made the active and inactive calls. Rule as the data show it: active = GI50 up to about 1.1 µM and inactive = higher.

# count of solved cases: 8
CC(C)(C)c1ccc(-c2nc3ccc(Cl)cc3c(=O)o2)cc1 ... 15.8 µM (inactive)
C=C(Br)C[N+]12CN3CN(CN(C3)C1)C2 ... > 100 µM (inactive)
COC(=O)C(Cc1ccccc1)NP(=O)(O)OCC1OC(n2cc(Br)c(=O)[nH]c2=O)CC1O (stereo not given) ... > 100 µM (inactive)
COC(=O)C1CCC(=O)N1CN(C(C)=O)c1cc(OC)ccc1OC (stereo not given) ... > 100 µM (inactive)
C#CCOCn1cnc2c(S)ncnc21 ... > 100 µM (inactive)
O=C(Nc1c(O)[nH]c(=S)[nH]c1=O)c1ccccc1F ... > 100 µM (inactive)
C[C@]12CC[C@@H]3c4cc(OCC(F)(F)F)c(O)cc4CC[C@H]3[C@@H]1CC[C@@H]2O ... 0.438 µM (active)
COc1ccc(/C(C)=C2\CCCN(Cc3ccccc3)C2)cc1 ... 24 µM (inactive)

// sample COC(=O)[C@]1(C)CCC[C@]2(C)[C@H]3CC[C@]4(C(C)C)OO[C@@H](O4)[C@]34O[C@@H]4C[C@H]21 , its GI50 was 1.99 µM (inactive)

Input N#Cc1c(N)nc2[nH]nc(N)c2c1-c1ccccc1 . Output GI50: > 41.8 µM (inactive)

* * *

# Tested on: A549
# Assay Name: NCI tumour cell line growth inhibition, 48 h
Activity calls are given as the source filed them. Cut-off read from the data, not from the text of the source: active = GI50 up to about 1.1 µM and inactive = higher.
Measured Attribute: GI50

Example entries and their recorded answers appear below.
O=c1[nH]c(=O)n(C2CC(O)C(CO)O2)cc1OC/C=C/Cc1ccccc1 (configuration not stated) ... > 100 µM (inactive)
O=C1NC2(NC(=O)C1=O)Nc1ccccc1S2 ... > 60.5 µM (inactive)
CCOC(=O)C(=Cc1ccccc1Cl)C(=O)OCC ... 2.21 µM (inactive)
Cc1c(C)c2cc3c(=O)ccoc3c(C)c2oc1=O ... > 100 µM (inactive)

Entry under test: CCOC(=O)[C@@H]1C[C@@H]1c1ccc(O)c(O)c1 . Its GI50 was 29.4 µM (inactive)

* * *

# Test system: M14
# Assay Name: NCI tumour cell line growth inhibition, 48 h
Activity calls are given as the source filed them. Rule as the data show it: active = GI50 up to about 1.1 µM and inactive = higher.
Tick one outcome: active, inactive

// below: answered compounds
CC1=NN(C(=O)CC(=O)N(C(=O)c2ccccc2Cl)c2ccc(C)cc2)C(=O)C1/N=N/c1ccc([N+](=O)[O-])cc1 (stereo not given) ... inactive
CO[C@]12CC(=O)C3(C(C[C@H]4CC5CC[C@H]6C[C@@H](OC(C)=O)CC[C@]6(OC(C)=O)C5C[C@@]43C)C1)C1C[C@H]3[C@@H]4CC[C@H]5C[C@@H](OC(C)=O)CC[C@]5(OC(C)=O)[C@H]4CC[C@]3(C)C12 (stereo not given in full) ... inactive
CCc1ccc(/C=C\c2cc(OC)c(OC)c(OC)c2)cc1 ... active
Cn1c2c(c3ccccc31)CCN(CCCCN1CCCCC1)C2=O ... inactive
Cc1cccc2c(N)c3cccc(C(=O)NCCNCCN)c3nc12 ... inactive
N#Cc1cnc(N)nc1NCC1(CO)CC(CCc2ccccc2)C1 (stereo not given) ... inactive
COc1cc2c(cc1OC)C(Cl)C(c1cc(OC)c(OC)c(OC)c1)=C2Cl (stereo not given) ... inactive
O=C1CC(c2ccccc2)[S+]([O-])c2ccccc2N1 (stereo not given) ... inactive

Give the logged outcome of this assay for the following compound: C[C@]12CC[C@H](OC(=O)Cc3ccc(N(CCCl)CCCl)cc3)CC1CC[C@@H]1C2CC[C@]2(C)NC(=O)CCC12 (stereo not given in full)
inactive

What is the recorded call for this compound in the test? CCCc1nc(NC#N)nc(C(=O)Nc2ccccc2)c1CC
inactive

Just curious, what result did COC(=O)c1cc(-c2c[nH]cc2C(=O)OCc2ccccc2)cn1S(=O)(=O)c1ccc(C)cc1 get here?
inactive

Any idea what this test logged for CC[S+]([O-])c1c2cc(OC)ccc2nc2ccc(OC)cc12 (stereo not given) ?
inactive

How was CC[C@@]1(O)C(=O)OCc2c1cc1n(c2=O)Cc2cc3c(OC)cccc3nc2-1 classified in this test?
active

Could you kindly confirm the outcome this assay logged for Clc1ccc(-c2cc(-c3cc(-c4ccc(Cl)cc4)[nH]n3)[nH]n2)cc1 ?
inactive

Could you please tell me the result logged for O=C1CN(c2ccccc2)C(=O)C1C(=O)Nc1ccc(Cl)c(Cl)c1 (stereo not given) in this assay?
inactive

Dear colleague, could you share the recorded outcome for CC(C)N(/C(F)=N\C(=O)Nc1ccccc1C(F)(F)F)C(C)C when you have a moment?
inactive

For this compound, state the assay outcome: O=C(O)c1cc(O)nc(SCc2ccccc2)n1
inactive
